Provide the reported solubility kinetic of each item.
Settings: buffer; pH 7.4; 200.0 µM

Record O=C(O)CNC(=S)N(Cc1ccccc1)Cc1cccs1 . Reported solubility kinetic: > 48.1 µg/mL

Value of measured solubility kinetic for the entry COc1ccccc1C(=O)COC(=O)COc1ccc(C#N)cc1 : > 48.8 µg/mL

For record O=C(O)c1ccccn1 the listed solubility kinetic is > 18.5 µg/mL

The recorded solubility kinetic for CC(C(=O)NCc1ccccc1Cl)N1C(=O)c2ccccc2C1=O (stereo not given) is > 51.4 µg/mL

So, Cc1cccc(N2CC(C(=O)O)CC2=O)c1C (stereo not given) ? Its solubility kinetic was > 35 µg/mL

Sample COc1ccc(N2C(=O)CC(C3CCCO3)C2=O)cc1 (stereo not given) ; solubility kinetic observed: > 41.3 µg/mL

Value of measured solubility kinetic for the entry O=C1SCCC1NC(=O)C(c1ccccc1)c1ccccc1 (stereo not given) : > 46.7 µg/mL

Data point: CCCNC(=O)COCc1cc(-c2ccc3c(c2)OCO3)on1 ; solubility kinetic = > 47.7 µg/mL

Form field solubility kinetic, entry C/C(CC(=O)NC(C)c1ccccc1)=N\NC(N)=S (stereo not given) : > 41.8 µg/mL

Entry CCS(=O)(=O)N1CCC(C(=O)Oc2ccc(Cl)cc2)CC1 — recorded solubility kinetic = 9.9 µg/mL

Value of solubility kinetic reported for the molecule Cc1ccc(S(=O)(=O)/N=C2/NC(=O)/C(=C\c3ccccc3)S2)cc1 is > 53.8 µg/mL

Record summary for O=C(Nc1ccc(S(=O)(=O)N2CCCCC2)cc1)C1CCCO1 (stereo not given) : reported solubility kinetic = 39.9 µg/mL

Looking up CCC1Oc2ccc(C)cc2N(CC(=O)NCc2cccs2)C1=O (stereo not given) , I found its solubility kinetic recorded as 5.2 µg/mL

Entry O=C(Nc1ccc(F)cc1)Nc1cccnc1Cl ; solubility kinetic = 13.8 µg/mL

CCN(CC)S(=O)(=O)c1cc(NC(=O)CCc2c(C)noc2C)ccc1C has a reported solubility kinetic of > 59 µg/mL

solubility kinetic for O=C(NC1CCNCC1)C1CCCCC1 is > 31.5 µg/mL

Briefly, solubility kinetic measured for CCCCOc1ccc(CN2CCSCC2)cc1 : 14.1 µg/mL

Looking up CC(Oc1ccccc1Cl)C(=O)N1CCCN(C)CC1 (stereo not given) , I found its solubility kinetic recorded as > 44.5 µg/mL

Measured solubility kinetic, CCCCn1c(N2CCCC2)nc2c1c(=O)[nH]c(=O)n2C : > 43.7 µg/mL

Sample CNCc1ccccc1OCc1ccccc1F.Cl ; solubility kinetic observed: > 42.3 µg/mL

For reference, reported solubility kinetic for O=C(CC12CC3CC(CC(Br)(C3)C1)C2)NC1CCCC1 stands at 36.4 µg/mL

For record O=C(/C(=C(\O)c1ccccc1)c1ncc[nH]1)c1ccccc1 the listed solubility kinetic is 9.5 µg/mL

Value of measured solubility kinetic for the entry COC(=O)c1cccc(NC(=O)Nc2ccc(Cl)cc2)c1 : < 0.3 µg/mL

The recorded solubility kinetic for entry O=C(COC(=O)CC1CC2CCC1C2)NCc1ccccc1 (stereo not given) equals > 45.2 µg/mL

Reported solubility kinetic ( O=[N+]([O-])/C=C1\NCCN1Cc1ccc(Cl)nc1 ) = 35.8 µg/mL

Reported solubility kinetic ( O=C(COC(=O)c1c[nH]c(=O)[nH]c1=O)Nc1ccccc1F ) = > 46.1 µg/mL

CCOC(=O)C1=C(C)NC(C)=C(C(=O)OCC)C1C(=O)OCC(=O)NCc1ccc(F)cc1 yielded solubility kinetic of > 69.4 µg/mL

Measured solubility kinetic, COC(=O)CCSC(=S)N1CCOCC1 : > 37.4 µg/mL

GET /value?item= COC(=O)CC1C(=O)NCCN1C(=O)c1ccc([N+](=O)[O-])cc1 (stereo not given) &field=solubility kinetic returns > 48.2 µg/mL

For reference, reported solubility kinetic for CCOc1ccc2[nH]c3c(NCCN(CC)CC)ncnc3c2c1 stands at 43.2 µg/mL

Reported solubility kinetic ( O=S(=O)(NCCc1csc(-c2ccccc2)n1)c1cccnc1 ) = > 51.8 µg/mL

Given item CC1CCCCC12NC(=O)N(CC(=O)NCc1ccccc1)C2=O (stereo not given) , the value recorded as its solubility kinetic is > 49.4 µg/mL

Memo: Cc1ccc(NC(=S)N2CCCCC2CO)cc1C (stereo not given) , reported solubility kinetic: > 41.8 µg/mL

Value of solubility kinetic reported for the molecule COC(=O)Cn1cnc2c(oc3ccccc32)c1=O is > 38.7 µg/mL

solubility kinetic reported for this molecule CN(CC(=O)Nc1ccc(Cl)cc1)C1CCCCC1 : 36 µg/mL
